- System under test: S1P1 (membranes prepared from S1P1/CHO cells) (Homo sapiens (Human))
- Sequence (P21453 whole entry): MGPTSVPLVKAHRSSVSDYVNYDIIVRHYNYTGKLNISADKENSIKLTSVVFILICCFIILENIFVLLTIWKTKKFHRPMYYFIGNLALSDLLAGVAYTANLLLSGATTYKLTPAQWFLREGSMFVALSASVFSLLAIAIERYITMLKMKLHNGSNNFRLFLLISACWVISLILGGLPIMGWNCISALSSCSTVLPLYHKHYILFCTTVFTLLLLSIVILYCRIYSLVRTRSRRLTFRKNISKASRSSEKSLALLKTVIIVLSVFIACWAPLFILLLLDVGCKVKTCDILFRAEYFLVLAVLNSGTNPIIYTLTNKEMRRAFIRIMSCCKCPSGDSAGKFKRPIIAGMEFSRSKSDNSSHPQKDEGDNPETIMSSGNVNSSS
- Experiment summary: Receptor [35S] GTPγS binding assay (S1P1 GTPγS)
- Type: biochemical
- Run conditions: phosphate examples; read-out: S1P1 GTPγS
pEC50: −log10 of the molar value.

| Compound | pEC50 |
| --- | --- |
| COc1ccccc1OC[C@@H]1CCc2cc([C@H]3CC[C@](N)(COP(=O)(O)O)C3)ccc2C1 [compound 475] | 7.00 to 8.00 |
| CCCCCC[C@@H]1COc2cc([C@@H]3CC[C@](N)(COP(=O)(O)O)C3)ccc2C1 [compound 423] | 6.00 to 7.00 |
| COc1ccc(F)c(CC[C@H]2CCc3cc([C@@H]4CC[C@@](N)(COP(=O)(O)O)C4)ccc3C2)c1 (single isomer, unassigned) [compound 609] | 7.00 to 8.00 |
| CC(C)CCSC[C@@H]1CCc2cc([C@H]3CC[C@](N)(COP(=O)(O)O)C3)ccc2C1 [compound 510] | 7.00 to 8.00 |
| COc1ccc(SC[C@@H]2CCc3cc([C@H]4CC[C@](N)(COP(=O)(O)O)C4)ccc3C2)cc1 [compound 529] | 7.00 to 8.00 |
| N[C@]1(COP(=O)(O)O)CC[C@H](c2ccc3c(c2)CC[C@H](CSCCc2cnccn2)C3)C1 [compound 526] | 7.00 to 8.00 |
| CC(C)(C)CCSC[C@@H]1CCc2cc([C@H]3CC[C@](N)(COP(=O)(O)O)C3)ccc2C1 [compound 519] | > 8.00 |
| CCCCCCNC(=O)OC1CCc2cc([C@H]3CC[C@@](N)(COP(=O)(O)O)C3)ccc2C1 (stereo partly drawn) [compound 626] | 7.00 to 8.00 |
| N[C@]1(COP(=O)(O)O)CCC(c2ccc3c(c2)CN(CCCc2ccccc2)C3=O)C1 (stereo partly drawn) [compound 614] | 6.00 to 7.00 |
| N[C@]1(COP(=O)(O)O)CC[C@H](c2ccc3c(c2)CC[C@@H](CCC2CCOCC2)C3)C1 [compound 558] | > 8.00 |
| COc1ccccc1/C=C/[C@@H]1CCc2cc([C@H]3CC[C@](N)(COP(=O)(O)O)C3)ccc2C1 [compound 641] | 7.00 to 8.00 |
| N[C@]1(COP(=O)(O)O)CC[C@H](c2ccc3c(c2)CC[C@H](COc2ccccc2)C3)C1 [compound 459] | 7.00 to 8.00 |
| COCCCCC[C@@H]1CCc2cc(C3CCC(N)(COP(=O)(O)O)C3)ccc2C1 (single isomer, unassigned) [compound 599] | > 8.00 |
| CCCCC=C[C@H]1CCc2cc([C@H]3CC[C@](N)(COP(=O)(O)O)C3)ccc2C1 [compound 648] | 7.00 to 8.00 |
| N[C@]1(COP(=O)(O)O)CC[C@H](c2ccc3c(c2)CC[C@@H](COc2cccc(OC(F)(F)F)c2)C3)C1 [compound 497] | > 8.00 |
